# measurement_description: solubility in water
# Type: physicochemical
property: solubility

Find the recorded solubility belonging to NC(=O)CN1C[C@H](O)CC1=O [crystalline form I] and report it.
≥ 90 mg/mL
